All values here come from PubChem BioAssay (NCATS).

- assay.method.text: qHTS profiling of the MIPE4 collection as inhibitors of Plasmodium falciparum (3D7) proliferation (AID 743344)
- condition.details: P. falciparum 3D7 in erythrocytes, SYBR Green DNA fluorescence, 72 h; at 28.5 µM unless noted
Outcome: True for parasite growth, % of DMSO control of at least 80%; False for anything lower.

Lookup: Please indicate if the recorded parasite growth, % of DMSO control for CON=C(C(=O)N[C@@H]1C(=O)N2C(C(=O)O)=C(Cn3ccc(=N)n3CCO)CS[C@H]12)c1csc(N)n1 meets or exceeds 80%.
Found: False

Lookup: Please indicate if the recorded parasite growth, % of DMSO control for COc1ccc(C2(C#N)CCC(C(=O)O)CC2)cc1OC1CCCC1 (stereo not given) meets or exceeds 80%.
Found: True

Lookup: Please indicate if the recorded parasite growth, % of DMSO control for Cc1cn([C@@H]2C[C@@H](O)[C@H](CO)O2)c(=O)[nH]c1=O meets or exceeds 80%.
Found: True

Lookup: Please indicate if the recorded parasite growth, % of DMSO control for COC(=O)C[C@](O)(CCCC(C)(C)O)C(=O)O[C@@H]1C(OC)=C[C@]23CCCN2CCc2cc4c(cc2[C@H]13)OCO4 meets or exceeds 80%.
Found: False

Lookup: Please indicate if the recorded parasite growth, % of DMSO control for CC(=O)[C@H]1CC[C@H]2[C@@H]3CCC4=CC(=O)CC[C@]4(C)[C@H]3CC[C@]12C meets or exceeds 80%.
Found: False

Lookup: Please indicate if the recorded parasite growth, % of DMSO control for CC1(C)CC(O)CC(C)(C)N1[O] meets or exceeds 80%.
Found: True

Lookup: Please indicate if the recorded parasite growth, % of DMSO control for CC(=O)N(O)CCCP(=O)(O)O meets or exceeds 80%.
Found: False

Lookup: Please indicate if the recorded parasite growth, % of DMSO control for COc1ccc2cc1Oc1ccc(cc1)C[C@H]1c3cc(c(OC)cc3CCN1C)Oc1c(OC)c(OC)cc3c1[C@H](C2)N(C)CC3 meets or exceeds 80%.
Found: False

Lookup: Please indicate if the recorded parasite growth, % of DMSO control for CC(N[C@H]1CCCC[C@H]1NC(=O)c1ccc(Cl)cc1)c1cccc2ccccc12 (stereo not given in full) meets or exceeds 80%.
Found: False

Lookup: Please indicate if the recorded parasite growth, % of DMSO control for NC(=O)c1ncn([C@@H]2O[C@H](CO)[C@@H](O)[C@@H]2O)n1 meets or exceeds 80%.
Found: True

Lookup: Please indicate if the recorded parasite growth, % of DMSO control for CN(C)CCOc1ccc(C(=C(CCCl)c2ccccc2)c2ccccc2)cc1 meets or exceeds 80%.
Found: False

Lookup: Please indicate if the recorded parasite growth, % of DMSO control for C[C@H]1[C@H](NC(=O)C(=NOC(C)(C)C(=O)O)c2csc(N)n2)C(=O)N1S(=O)(=O)O meets or exceeds 80%.
Found: True

Lookup: Please indicate if the recorded parasite growth, % of DMSO control for C[C@H](CCC(=O)O)[C@H]1CC[C@H]2[C@@H]3[C@H](O)C[C@@H]4C[C@H](O)CC[C@]4(C)[C@@H]3CC[C@]12C meets or exceeds 80%.
Found: False

Lookup: Please indicate if the recorded parasite growth, % of DMSO control for CC(C)C(C)C=CC(C)C1CCC2C3=CC=C4CC(O)CCC4(C)C3CCC21C (stereo not given) meets or exceeds 80%.
Found: True

Lookup: Please indicate if the recorded parasite growth, % of DMSO control for CN1[C@H]2CC(OC(=O)[C@@H](CO)c3ccccc3)C[C@H]1[C@H]1O[C@H]12 (stereo not given in full) meets or exceeds 80%.
Found: True

Lookup: Please indicate if the recorded parasite growth, % of DMSO control for CC(C)OC(=O)[C@H](C)N[P@](=O)(OC[C@H]1O[C@@H](n2ccc(=O)[nH]c2=O)[C@](C)(F)[C@H]1O)Oc1ccccc1 meets or exceeds 80%.
Found: False

Lookup: Please indicate if the recorded parasite growth, % of DMSO control for COc1cc(CNC(=O)CCCCC=CC(C)C)ccc1O meets or exceeds 80%.
Found: True

Lookup: Please indicate if the recorded parasite growth, % of DMSO control for O=C(O)c1ccccc1C(=O)Nc1ccc(-c2ccccc2)cc1 meets or exceeds 80%.
Found: True
